Reported t1/2 by item:
ASSAYED TARGET: T1, Human IL2Rγ extracellular domain expressed with a C-terminal myc-myc-hexahistidine tag (human)
T1 construct: also called hIL-2Rg-MMH; hIL-2RG-MMH
T1 chain: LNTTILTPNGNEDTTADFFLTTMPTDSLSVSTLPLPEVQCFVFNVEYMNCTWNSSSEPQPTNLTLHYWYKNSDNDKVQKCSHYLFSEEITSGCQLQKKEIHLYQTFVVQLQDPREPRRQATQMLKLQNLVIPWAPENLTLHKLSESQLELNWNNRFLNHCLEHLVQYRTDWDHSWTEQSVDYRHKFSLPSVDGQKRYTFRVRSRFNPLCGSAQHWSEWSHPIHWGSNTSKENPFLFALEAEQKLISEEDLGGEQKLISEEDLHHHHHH
METHOD: SPR Biacore 4000, mAb captured by anti-hFc, HBS-ET, 37C
Use min as the unit, but write only the number.

Here is how some binders turned out for t1/2.
# BINDER, VALUE
rows = [
    ("H4H12858P (antibody, human IgG4 S228P, kappa, V domains shown, anti-IL2Rγ monoclonal antibody expressed with human IgG4 Fc; also called REGN9433) VH: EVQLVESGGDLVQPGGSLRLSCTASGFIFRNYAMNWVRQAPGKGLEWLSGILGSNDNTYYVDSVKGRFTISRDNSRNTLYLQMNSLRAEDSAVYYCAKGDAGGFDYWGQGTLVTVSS VL: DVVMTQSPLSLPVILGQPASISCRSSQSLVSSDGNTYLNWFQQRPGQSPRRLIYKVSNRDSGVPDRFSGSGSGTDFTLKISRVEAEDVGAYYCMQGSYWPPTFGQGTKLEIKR", 7),
    ("H4H12890P (antibody, human IgG4 S228P, kappa, V domains shown, anti-IL2Rγ monoclonal antibody expressed with human IgG4 Fc) VH: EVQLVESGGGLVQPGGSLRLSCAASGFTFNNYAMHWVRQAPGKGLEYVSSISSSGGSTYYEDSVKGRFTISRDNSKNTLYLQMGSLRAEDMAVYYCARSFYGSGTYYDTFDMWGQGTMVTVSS VL: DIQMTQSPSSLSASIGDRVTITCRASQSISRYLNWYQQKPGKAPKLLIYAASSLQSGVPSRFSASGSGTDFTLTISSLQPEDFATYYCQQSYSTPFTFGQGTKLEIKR", 9),
]

[ask] Which value of t1/2 has been reported for H4H12886P (antibody, human IgG4 S228P, kappa, V domains shown, anti-IL2Rγ monoclonal antibody expressed with human IgG4 Fc) VH: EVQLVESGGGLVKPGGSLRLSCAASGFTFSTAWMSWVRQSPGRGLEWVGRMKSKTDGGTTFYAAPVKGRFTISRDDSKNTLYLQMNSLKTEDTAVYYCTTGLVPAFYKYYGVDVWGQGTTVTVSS VL: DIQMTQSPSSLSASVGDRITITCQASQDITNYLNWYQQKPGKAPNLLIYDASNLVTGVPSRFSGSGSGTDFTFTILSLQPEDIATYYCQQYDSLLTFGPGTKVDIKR in the records?
[reply] 12

Reference source for all entries: patent US20200247894A1
